# assay-info: Interaction with the stable free radical DPPH (reducing activity)
# condition-label: 100 μM compound, 20 min, DPPH 50 μM
# RA % (interaction with DPPH) annotations
# output: bare number, implied unit %

Some solved entries appear below for comparison.
[
  {
    "molecule": "O=C(C=Cc1cccc(Oc2ccccc2)c1)c1cccs1 [Compound 1i]",
    "RA % (interaction with DPPH) [%]": 43
  },
  {
    "molecule": "Cc1ccc(C(=O)c2ccc(CC(=O)O)n2C)cc1 [Tolmetin, reference compound]",
    "RA % (interaction with DPPH) [%]": 3
  },
  {
    "molecule": "CN(C)c1ccc(/C=C/c2c[nH]cc2C(=O)c2ccccc2)cc1 [Compound 2ii]",
    "RA % (interaction with DPPH) [%]": 86
  },
  {
    "molecule": "CC(Cc1ccc(O)c(O)c1)C(C)Cc1ccc(O)c(O)c1 (centres unmarked) [NDGA, nordihydroguaiaretic acid, reference compound]",
    "RA % (interaction with DPPH) [%]": 81
  }
]

Turning to the following molecule.
Asked: Entry CN(C)c1ccc(C=CC=CC(=O)c2ccccc2)cc1 [Compound 1ii] : reported RA % (interaction with DPPH) = ?
Given back: 31

These measurements were taken from paper PMC6332026.
